Source: ChEMBL document CHEMBL4819112

Assay Details: Growth inhibition of human JHH7 cells measured after 24 hrs
Type: functional, cell-based
Run Conditions: JHH7, 24 h
pIC50: −log10 of the molar value.

{"Smiles Repr": "CC(C)=CCC/C(C)=C/Cn1c(=O)c2ccccc2c(=O)n1C", "pIC50": 6.47}
